# experimental_target: P2X7 (Homo sapiens (Human), UniProt Q99572)
# Sequence (Q99572 whole entry): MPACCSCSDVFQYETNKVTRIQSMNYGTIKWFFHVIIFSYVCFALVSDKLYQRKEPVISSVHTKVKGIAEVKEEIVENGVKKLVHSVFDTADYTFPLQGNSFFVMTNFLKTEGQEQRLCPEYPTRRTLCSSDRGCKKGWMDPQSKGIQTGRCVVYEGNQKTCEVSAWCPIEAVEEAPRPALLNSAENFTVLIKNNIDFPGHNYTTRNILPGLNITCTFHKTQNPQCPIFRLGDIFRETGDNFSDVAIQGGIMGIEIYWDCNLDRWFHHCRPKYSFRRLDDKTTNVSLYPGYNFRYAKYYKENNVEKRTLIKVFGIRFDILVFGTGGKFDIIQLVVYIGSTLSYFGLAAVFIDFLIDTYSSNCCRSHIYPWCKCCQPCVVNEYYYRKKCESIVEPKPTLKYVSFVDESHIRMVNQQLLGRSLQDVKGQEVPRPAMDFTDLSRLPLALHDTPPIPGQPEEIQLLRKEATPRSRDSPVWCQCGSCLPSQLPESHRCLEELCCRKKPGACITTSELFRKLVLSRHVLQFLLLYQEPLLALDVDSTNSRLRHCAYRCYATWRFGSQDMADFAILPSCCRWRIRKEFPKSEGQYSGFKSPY
# assay_explanation: P2X7 antagonism in human whole blood, IL-1β release (LPS + Bz-ATP, ELISA)
# Type: cell-based
# stated_conditions: Human Whole Blood IC50 (μM), LPS 30 ng/ml + Bz-ATP 1 mM
measured_attribute: IC50 (µM)
The answer is to be given in µM; state only the numeric part.

smi	units	IC50
Cc1nc(-c2ccccn2)c2c(n1)[C@H]1CCC[C@@H](C2)N1C(=O)c1ccc(Cl)c(F)c1Cl	µM	0.037
Cc1nc(-c2ccn[nH]2)c2c(n1)[C@@H]1CCC[C@H](C2)N1C(=O)c1ccc(Cl)cc1Cl	µM	2

Now consider the entry below.
Kindly note the recorded IC50 for Cc1nc(-c2ncccn2)c2c(n1)[C@H]1CCC[C@@H](C2)N1C(=O)c1cccc(Cl)c1Cl , which is 0.064

---

These records show log10 Ki for P2X7 (Homo sapiens (Human), UniProt Q99572).
Note the log scale: values are log10 of Ki expressed in nM.

Summary line: Cc1nc(-c2ccn[nH]2)c2c(n1)[C@H]1CCC[C@@H](C2)N1C(=O)c1ccc(Cl)cc1F [Example 28] , P2X7 (Homo sapiens (Human), UniProt Q99572), reported log10 Ki = 2.10

Test item Cc1nc(-c2ncccn2)c2c(n1)[C@H]1CCC[C@@H](C2)N1C(=O)c1ccnc(C(F)(F)F)c1Cl [Example 42] ; P2X7 (Homo sapiens (Human), UniProt Q99572); reported log10 Ki was 2.10

Reading of log10 Ki for Cc1nc(-c2ccccn2)c2c(n1)[C@H]1CCC[C@@H](C2)N1C(=O)c1ccc(Cl)c(F)c1Cl [Example 64] with P2X7 (Homo sapiens (Human), UniProt Q99572): 1.30

---

# experimental_target: P2X7 (Homo sapiens (Human), UniProt Q99572)
# assay_explanation: P2X7 antagonism in human peripheral blood mononuclear cells (PBMCs), IL-1β release (LPS + Bz-ATP, ELISA)
# Format: cell-based
# stated_conditions: P2X7, 10 μM test compound, LPS 30 ng/ml + Bz-ATP 0.5 mM, read-out: PBMC @10 μM (% control)
measured_attribute: remaining activity at 10 µM (%)
The reply should contain only the number, in %.

compound	units	remaining activity at 10 µM
Cc1nc(-c2ccccn2)c2c(n1)[C@H]1CCC[C@@H](C2)N1C(=O)c1cccc(Cl)c1Cl [Example 65]	%	0.1

response.value for Cc1nc(-c2ccn[nH]2)c2c(n1)[C@H]1CCC[C@@H](C2)N1C(=O)c1cccc(C(F)(F)F)c1F [Example 26] (field: remaining activity at 10 µM) = -3.8

The recorded remaining activity at 10 µM for Cc1nc(-c2ccn[nH]2)c2c(n1)[C@H]1CCC[C@@H](C2)N1C(=O)c1ccc(F)cc1Cl [Example 22] is 26.8

compound Cc1nc(-c2ccc(F)cc2)c2c(n1)[C@H]1CCC[C@@H](C2)N1C(=O)c1ccc(Cl)c(F)c1Cl [Example 54] , remaining activity at 10 µM observed: 9.3

---

# experimental_target: UniProtKB Q99572
# assay_explanation: P2X7 antagonism in human peripheral blood mononuclear cells (PBMCs), IL-1β release (LPS + Bz-ATP, ELISA)
# Assay type: cell-based
# stated_conditions: P2X7, 10 μM test compound, LPS 30 ng/ml + Bz-ATP 0.5 mM, read-out: PBMC @10 μM (% control)
measured_attribute: remaining activity at 10 µM (%)
Response body: numeric value in %, unit text excluded.

smi	experimental_target	remaining activity at 10 µM, %
Cc1nc(-c2cnn(C)c2)c2c(n1)[C@H]1CCC[C@@H](C2)N1C(=O)c1ccc(F)cc1Cl	UniProtKB Q99572	73.8
Cc1nc(-c2cnccn2)c2c(n1)[C@H]1CCC[C@@H](C2)N1C(=O)c1cccc(Cl)c1Cl	UniProtKB Q99572	-4.3
Cc1nc(-c2cnccn2)c2c(n1)[C@H]1CCC[C@@H](C2)N1C(=O)c1ccc(Cl)c(F)c1Cl	UniProtKB Q99572	-3.4
Cc1nc(-c2cnccn2)c2c(n1)[C@H]1CCC[C@@H](C2)N1C(=O)c1ccnc(C(F)(F)F)c1Cl	UniProtKB Q99572	-1.9
Cc1nc(-c2cnn(C)c2)c2c(n1)[C@H]1CCC[C@@H](C2)N1C(=O)c1ccc(F)c(Cl)c1Cl	UniProtKB Q99572	1.2

Record Cc1nc(-c2ccnn2C)c2c(n1)[C@H]1CCC[C@@H](C2)N1C(=O)c1ccc(Cl)c(F)c1Cl has UniProtKB Q99572 remaining activity at 10 µM equal to -3.3

Noted remaining activity at 10 µM for Cc1nc(-c2ncccn2)c2c(n1)[C@H]1CCC[C@@H](C2)N1C(=O)c1ccc(Cl)c(F)c1Cl , tested on UniProtKB Q99572: -11.6

---

# experimental_target: P2X7 (Homo sapiens (Human))
# assay_explanation: P2X7 antagonism in human peripheral blood mononuclear cells (PBMCs), IL-1β release (LPS + Bz-ATP, ELISA)
# Format: cell-based
# stated_conditions: P2X7, 10 μM test compound, LPS 30 ng/ml + Bz-ATP 0.5 mM, read-out: PBMC @10 μM (% control)
measured_attribute: remaining activity at 10 µM (%)
A number alone suffices; assume %.

// solved cases for remaining activity at 10 µM follow
smi	units	result_number
Cc1nc(-c2ncccn2)c2c(n1)[C@H]1CCC[C@@H](C2)N1C(=O)c1cccc(Cl)c1Cl	%	-14.2
Cc1nc(-c2ccc(F)cc2)c2c(n1)[C@@H]1CCC[C@H](C2)N1C(=O)c1ccc(F)c(Cl)c1Cl	%	13.3
Cc1nc(-c2cnn(C)c2)c2c(n1)[C@H]1CCC[C@@H](C2)N1C(=O)c1ccc(Cl)c(F)c1Cl	%	9.1

// next item, remaining activity at 10 µM requested
Value of measured remaining activity at 10 µM for the entry Cc1nc(-c2cnccn2)c2c(n1)[C@H]1CCC[C@@H](C2)N1C(=O)c1cccc(C(F)(F)F)c1Cl : -4.2

---

# experimental_target: P2X7 (Homo sapiens (Human))
# assay_explanation: P2X7 antagonism in human whole blood, IL-1β release (LPS + Bz-ATP, ELISA)
# Assay type: cell-based
# stated_conditions: LPS 30 ng/ml + Bz-ATP 1 mM, read-out: Human Whole Blood IC50
Listed below: log10 IC50 values for each entry.
Hello, just confirming the data are log10 of IC50 with units of µM.

compound	result_number
Cc1nc(-c2ccc(F)cc2)c2c(n1)[C@H]1CCC[C@@H](C2)N1C(=O)c1cccc(C(F)(F)F)c1C [Example 53]	-0.88
Cc1nc(-c2ccnn2C)c2c(n1)[C@H]1CCC[C@@H](C2)N1C(=O)c1cccc(C(F)(F)F)c1C [Example 57]	-0.72
Cc1nc(-c2ccn[nH]2)c2c(n1)[C@@H]1CCC[C@H](C2)N1C(=O)c1ccc(Cl)cc1F [Example 12]	0.79

get_value(item= Cc1nc(-c2cnccn2)c2c(n1)[C@H]1CCC[C@@H](C2)N1C(=O)c1cccc(C(F)(F)F)c1C [Example 50] , readout=log10 IC50) returns -0.80

Entry Cc1nc(-c2ccn[nH]2)c2c(n1)[C@H]1CCC[C@@H](C2)N1C(=O)c1ccc(Cl)cc1F [Example 28] ; log10 IC50 = -0.37

The compound listed as Cc1nc(-c2ncccn2)c2c(n1)[C@H]1CCC[C@@H](C2)N1C(=O)c1ccnc(C(F)(F)F)c1Cl [Example 42] shows log10 IC50 equal to -0.97

---

We begin with a simple list: items and their reported IC50.
# experimental_target: UniProtKB Q99572
# assay_explanation: P2X7 antagonism in human whole blood, IL-1β release (LPS + Bz-ATP, ELISA)
# Type: cell-based
# stated_conditions: Human Whole Blood IC50 (μM), LPS 30 ng/ml + Bz-ATP 1 mM
Dear colleague, please return just the value in µM, with no unit written.

compound	IC50 (µM)
Cc1nc(-c2ccn[nH]2)c2c(n1)[C@H]1CCC[C@@H](C2)N1C(=O)c1ccc(Cl)c(F)c1Cl	0.018

Entry Cc1nc(-c2cnn(C)c2)c2c(n1)[C@H]1CCC[C@@H](C2)N1C(=O)c1cccc(C(F)(F)F)c1F under UniProtKB Q99572 had IC50 of 8.59

Kindly note: UniProtKB Q99572, Cc1nc(-c2ncccn2)c2c(n1)[C@H]1CCC[C@@H](C2)N1C(=O)c1cccc(C(F)(F)F)c1Cl , IC50 value reported: 0.021

Reported UniProtKB Q99572 IC50 for item Cc1nc(-c2ccc(F)cc2)c2c(n1)[C@H]1CCC[C@@H](C2)N1C(=O)c1cccc(C(F)(F)F)c1Cl was 0.043

Reported IC50 (UniProtKB Q99572) for entry Cc1nc(-c2ccn[nH]2)c2c(n1)[C@@H]1CCC[C@H](C2)N1C(=O)c1ccc(F)c(Cl)c1Cl is 1.36

The measured IC50 that Cc1nc(-c2ccn[nH]2)c2c(n1)[C@@H]1CCC[C@H](C2)N1C(=O)c1cccc(C(F)(F)F)c1C showed for UniProtKB Q99572 is 1.13

# IC50 measured on UniProtKB Q99572 for item Cc1nc(-c2cnccn2)c2c(n1)[C@H]1CCC[C@@H](C2)N1C(=O)c1cccc(C(F)(F)F)c1Cl = 0.088
